Origin of the recorded values: ChEMBL document CHEMBL1201862

# Tested on: IGROV-1
# run-description: NCI tumour cell line growth inhibition, 48 h
Calls of active or inactive are those of the source. No stated cut-off is given here; in the data, active = GI50 up to about 1.1 µM and inactive = higher.
Assign a class; possible classes are 1.0 (active), 0.0 (inactive)

Outcome? `O[C@H]1[C@H](O)[C@@H](Cn2nnc(-c3ccccc3)c2-c2ccccc2)OCO[C@@H]1Cn1nnc(-c2ccccc2)c1-c1ccccc1`
0.0

Which outcome was entered for the compound COc1cccc(C2C(C(=O)O)=C(CO)Oc3cc4c(cc32)OCO4)c1 (centres undefined) in this test?
0.0

Hi, do you know how `COc1ccc2oc(=O)c(-c3nc4ccccc4s3)cc2c1` came out in this test?
0.0

Lab log entry: COC1=C(C)C(=O)C2=C(C1=O)C1C3CC4=C(C(=O)C(OC)=C(C)C4=O)C(CNC(=O)C(C)=O)N3C(C#N)C(C2)N1C (centres undefined) — outcome as called in the assay?
1.0

For CC(C)(C)C(=O)OCC1OC(N=[N+]=[N-])C(OC(=O)C(C)(C)C)C(OC(=O)C(C)(C)C)C1OC(=O)C(C)(C)C (centres undefined) , what call appears in the results of this test?
0.0

Which result was noted for this compound in the test: `CCOC(=O)C(=O)Nc1cccc(C)c1C`
0.0

Query: recorded result category for `O=C(NNC(=O)c1nsc2ccccc12)c1ccc(Cl)cc1` in this test
0.0

How did this test come out for `CO/[N+]([O-])=C\C(=O)N/C=C/C(=O)O` ?
0.0

Hello, I am checking results. What call was entered for O=C1CCCC2=C1C(c1ccc3c(c1)OCO3)Nc1ccc3ccccc3c12 (centres undefined) ?
0.0

====

# Test system: TK-10
# run-description: NCI tumour cell line growth inhibition, 48 h
Calls of active or inactive are those of the source. No stated cut-off is given here; in the data, active = GI50 up to about 1.1 µM and inactive = higher.
Pick one and only one: 1 = active, 0 = inactive

Which result was noted for this compound in the test: `C/C(=N/NS(=O)(=O)c1ccc([N+](=O)[O-])cc1)c1cccc[n+]1[O-]`
0

Record lookup: outcome of this test for CCCCC1=CC1(C#N)[N+](=O)[O-] (stereo unspecified) ?
0

Hey, what did the test say about `Nc1nnc(CCC(=O)Nc2cc(Cl)ccc2Cl)n1N` ?
0

Which outcome did this test record for the compound `O=C(O)CCCn1nnc2c(=O)[nH][nH]c(=O)c21` ?
0

Recorded call for `CCOc1c(/N=N/c2ccccc2Cl)c(-c2ccccc2)nn1C(=S)S` ?
0

What did the test return for `c1ccc(/N=C2\c3ccccc3CN2c2ccccn2)nc1` ?
0

What call does the record list for CC1(C=O)CC(CCc2ccccc2)NC1Cc1ccc(O)cc1 (stereo unspecified) ?
0

Per the records of this test, what outcome belongs to Cn1c2ccccc2c2c3c(c4c5ccccc5n(C5OC(CO)C(O)C(O)C5O)c4c21)C(=O)OC3=O (stereo unspecified) ?
0

Could you kindly confirm the outcome this assay logged for `C=C[C@]1(C)C[C@@H](OC(=O)CO)[C@@]2(C)[C@H](C)CC[C@]3(CCC(=O)[C@H]32)[C@@H](C)[C@@H]1O` ?
0

So what was the verdict on O=C(NC1(C(=O)NNc2nnc(-c3ccccc3)c(-c3ccccc3)n2)C(c2ccccc2)C(c2ccccc2)=NN1c1ccccc1)c1ccccc1 (stereo unspecified) in this test?
0

I'd appreciate the recorded outcome for `[N-]=[N+]=CC(=O)OCC1SCCCS1` from this test.
0

Please indicate how the test categorized `CCN(CCCl)CCCCNc1c2ccccc2nc2ccc(OC)cc12` .
1

So what was the verdict on CC/C=C/c1cc2c(cc1O)CCC1C2CC[C@@]2(C)C1CC[C@@H]2O (stereo partly specified) in this test?
1

Recorded call for `CCCCCCCCCCCCCc1nnn[nH]1` ?
0

Look up the recorded call for `Nc1ccc2c(c1)NC(=O)[C@@H]1CCCN1C2=O` in this test.
0

Write down the call the test reported for this compound. Item: OC(c1ccc(C(F)(F)F)cc1)C(F)(F)c1nc2ccccc2o1 (stereo unspecified)
0

What call does the record list for `O=c1[nH]c(=O)n(C/C=C/CBr)nc1Br` ?
0

For CCC1(O)C(=O)OCc2c1cc1n(c2=O)Cc2cc3cc4c(cc3nc2-1)OCO4 (stereo unspecified) , what call appears in the results of this test?
1

Outcome logged for CC(C)(C)C(=O)OCOP(=O)(OCOC(=O)C(C)(C)C)OCC1OC(n2ccc(=O)[nH]c2=O)C(N=[N+]=[N-])C1O (stereo unspecified) in this assay:
0

Record lookup: outcome of this test for `O=[N+]([O-])c1cc(I)cc(/C=N/NS(=O)(=O)c2ccc(Cl)cc2)c1O` ?
0

So what was the verdict on `O=S(=O)(c1ccccc1)n1cc(C[P+](c2ccccc2)(c2ccccc2)c2ccccc2)c2ccccc21` in this test?
0
